Read-out: Glutathione S-transferase M3 (GSTM3), GSTM3 (gene 2947)
protocol summary: LTEA_HepaRG_GSTM3: Life Technologies and Expression Analysis (LTEA) Assay for Glutathione S-transferase M3 (GSTM3) using HepaRG (AID 2283501)
conditions used: mRNA level, 48 h; actives raise or lower the signal
Activity calls are given as the source filed them. The calls were made as follows: active = hit-call score of the fitted dose curve at least 0.9, where 1 is the maximum; inactive = score below 0.9.
Output constraint: value belongs to active, inactive

# count of solved cases: 10
- molecule: "CC(O)CC(C)(C)O (configuration not stated)"
  assigned category: "inactive"
- molecule: "CCCCCCCCN(C)CCCCCCCC"
  assigned category: "inactive"
- molecule: "CCO[Si](CCCNC(N)=O)(OCC)OCC"
  assigned category: "inactive"
- molecule: "O=C1CCC(C2CCCCC2)CC1"
  assigned category: "inactive"
- molecule: "CCCCCc1ccc(N)cc1"
  assigned category: "inactive"
- molecule: "O=C(O)Cc1cc(I)c(Oc2ccc(O)c(I)c2)c(I)c1"
  assigned category: "inactive"
- molecule: "CC[C@@H]1C[C@H](N(Cc2cc(C(F)(F)F)cc(C(F)(F)F)c2)C(C)=O)c2cc(C(F)(F)F)ccc2N1C(=O)OC(C)C"
  assigned category: "inactive"
- molecule: "c1ccc2ccccc2c1"
  assigned category: "inactive"
- molecule: "c1ccc(C[n+]2cccc3ccccc32)cc1"
  assigned category: "inactive"
- molecule: "O=C(OCCCCCCOC(=O)c1ccccc1)c1ccccc1"
  assigned category: "inactive"

# outcome recorded in this test, key = `C[C@]12CC[C@@H]3c4ccc(O)cc4CC[C@H]3[C@@H]1CCC2=O`
inactive

Would you mind doing `CC(=O)N1CCN(c2ccc(OC[C@H]3CO[C@](Cn4ccnc4)(c4ccc(Cl)cc4Cl)O3)cc2)CC1` as well?
active

###

Read-out: Vascular cell adhesion molecule 1 (VCAM1), VCAM1 (gene 7412)
protocol summary: BSK_hDFCGF_VCAM1: BioMAP Diversity Plus: hDFCGF Assay for Vascular cell adhesion molecule 1 (VCAM1) Biomarker Activity (AID 2283065);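 as to AC50: VCAM-1 protein level quantified by ELISA after 24 h chemical exposure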
conditions used: primary human foreskin fibroblasts; actives raise or lower the signal
Activity calls are given as the source filed them. The calls were made as follows: active = hit-call score of the fitted dose curve at least 0.9, where 1 is the maximum; inactive = score below 0.9.
experimental readout: AC50

# annotated cases, reported AC50 shown
- compound: "O=C1c2ccccc2C(=O)N1CCc1noc(-c2ccc(CN3CCCCCC3)s2)n1"
  measured value: "inactive"
- compound: "Cc1ccc(C(C)C)cc1"
  measured value: "inactive"
- compound: "CC(=O)N1CCN(c2ccc(OC[C@H]3CO[C@](Cn4ccnc4)(c4ccc(Cl)cc4Cl)O3)cc2)CC1"
  measured value: "35.5 µM (active)"
- compound: "OCCO"
  measured value: "inactive"

Look at this compound and give its reported AC50. `CO[C@H]1/C=C/O[C@@]2(C)Oc3c(C)c(O)c4c(O)c(c(/C=N/N5CCN(C)CC5)c(O)c4c3C2=O)NC(=O)/C(C)=C\C=C\[C@H](C)[C@H](O)[C@@H](C)[C@@H](O)[C@@H](C)[C@H](OC(C)=O)[C@@H]1C`
inactive

Would you mind doing `O=C(O)Cn1c(=O)n(Cc2ccc(Br)cc2F)c(=O)c2ccc(Cl)cc21` as well?
inactive

Would you mind doing COCC(C)OCC(C)OCC(C)O (stereo unspecified) as well?
inactive

Would you mind doing `CC1=CC(=O)/C(=C(/C)O)C(=O)O1` as well?
inactive

Would you mind doing `CC1(C)NC(=O)N(c2ccc([N+](=O)[O-])c(C(F)(F)F)c2)C1=O` as well?
inactive

Would you mind doing `CC[C@@H]1C[C@H](N(Cc2cc(C(F)(F)F)cc(C(F)(F)F)c2)C(C)=O)c2cc(C(F)(F)F)ccc2N1C(=O)OC(C)C` as well?
inactive

Would you mind doing `Cc1occc1C(=O)Nc1ccc(C(=O)N2CCC(F)(F)/C(=C\C(=O)N3CCC(N4CCCCC4)CC3)c3ccccc32)cc1` as well?
inactive

Would you mind doing CC(O)CC(C)(C)O (stereo unspecified) as well?
inactive

Would you mind doing `O=C(Nc1ccc(Cl)cc1)Nc1ccc(Cl)c(Cl)c1` as well?
0.47 µM (active)

Would you mind doing `CCCCCCCC[Si](OCC)(OCC)OCC` as well?
inactive

Would you mind doing `O=C(O)c1ccccc1-n1cc(C(=O)O)c(=O)c2cc(Nc3c(F)cc(F)cc3Cl)c(Cl)cc21` as well?
inactive

Would you mind doing `CC(C)(c1cc(Br)c(O)c(Br)c1)c1cc(Br)c(O)c(Br)c1` as well?
5.94 µM (active)

Would you mind doing `CN(C[C@@H](CC[N+]12CCC(C3CCCCC3)(CC1)CC2)c1ccc(Cl)c(Cl)c1)C(=O)c1cc(C(F)(F)F)cc(C(F)(F)F)c1` as well?
7.41 µM (active)

Would you mind doing `O=c1[nH]sc2ccccc12` as well?
1.82 µM (active)

Would you mind doing `Clc1ccccc1C(c1ccccc1)(c1ccccc1)n1ccnc1` as well?
8.14 µM (active)

Would you mind doing `Oc1ccc2ccccc2c1` as well?
inactive

Would you mind doing `CC(C)(C)c1cc(/C=C2\SC(N)=NC2=O)cc(C(C)(C)C)c1O` as well?
15.6 µM (active)

###

Tested on: Brachyury (BRA) Protein Expression, TBXT (gene 6862)
protocol summary: CCTE_Deisenroth_DEVTOX-GLR_Endo_BRA: CCTE's DevTox GLR-Endo Assay Evaluation of Brachyury (BRA) Protein Expression, Deisenroth Lab (AID 2284417)
Active and inactive are the calls of the source. The calls were made as follows: active = hit-call score of the fitted dose curve at least 0.9, where 1 is the maximum; inactive = score below 0.9.
Output constraint: value belongs to active, inactive

# count of solved cases: 3
- compound structure: "CC/C(=C(/CC)c1ccc(O)cc1)c1ccc(O)cc1"
  assigned category: "active"
- compound structure: "OCCO"
  assigned category: "inactive"
- compound structure: "CCCCOC(=O)c1ccc(O)cc1"
  assigned category: "active"

# outcome recorded in this test, key = `CO[C@H]1/C=C/O[C@@]2(C)Oc3c(C)c(O)c4c(O)c(c(/C=N/N5CCN(C)CC5)c(O)c4c3C2=O)NC(=O)/C(C)=C\C=C\[C@H](C)[C@H](O)[C@@H](C)[C@@H](O)[C@@H](C)[C@H](OC(C)=O)[C@@H]1C`
active

###

protocol summary: ATG_PXRE_CIS: Attagene CIS-FACTORIAL HepG2 Assay for human Pregnane X Receptor Element (PXRE) (AID 2282957)
conditions used: HepG2 Attagene CIS-FACTORIAL PXRE reporter, mRNA; actives raise or lower the signal
Calls of active or inactive are those of the source. Rule for the calls: active = hit-call score of the fitted dose curve at least 0.9, where 1 is the maximum; inactive = score below 0.9.
Output constraint: value belongs to T = active, F = inactive

- compound: "c1ccc2n[nH]nc2c1"
  assigned category: "F"
- compound: "OC12N=C(c3ccccc3)SC1Cc1cc(Cl)ccc12 (centres undefined)"
  assigned category: "T"
- compound: "CC1=CC(=O)/C(=C(/C)O)C(=O)O1"
  assigned category: "F"
- compound: "COc1cccc([C@H](O)C2CCN(CCc3ccc(F)cc3)CC2)c1OC"
  assigned category: "T"
- compound: "CCO[Si](CCCNC(N)=O)(OCC)OCC"
  assigned category: "F"
- compound: "O=C1c2ccccc2C(=O)N1CCc1noc(-c2ccc(CN3CCCCCC3)s2)n1"
  assigned category: "T"
- compound: "CC(C)(O)c1ccc(CNC(=O)c2cccnc2Oc2ccc3nonc3c2)cc1"
  assigned category: "T"
- compound: "Cc1occc1C(=O)Nc1ccc(C(=O)N2CCC(F)(F)/C(=C\\C(=O)N3CCC(N4CCCCC4)CC3)c3ccccc32)cc1"
  assigned category: "T"

Continue with the compound presented below.
# outcome recorded in this test, key = `COc1ccc2cc(S(=O)(=O)N[C@H](CC(=O)N[C@H](Cc3ccc(CN4[C@H](C)CCC[C@@H]4C)cc3)C(=O)N(C)C(C)C)c3ccc4c(c3)OCO4)ccc2c1`
F

###

Read-out: succinate dehydrogenase complex iron sulfur subunit B (SDHB), SDHB (gene 6390)
protocol summary: LTEA_HepaRG_SDHB: Life Technologies and Expression Analysis (LTEA) Assay for succinate dehydrogenase complex iron sulfur subunit B (SDHB) using HepaRG (AID 2283528)
conditions used: mRNA level, 48 h; actives raise or lower the signal
Activity calls are given as the source filed them. Rule for the calls: active = hit-call score of the fitted dose curve at least 0.9, where 1 is the maximum; inactive = score below 0.9.
Output constraint: value belongs to active, inactive

- molecule: "O=C(Nc1ccc(Cl)cc1)Nc1ccc(Cl)c(Cl)c1"
  assigned category: "active"
- molecule: "Cc1c2ccccc2c(C)c2c1ccc1ccccc12"
  assigned category: "inactive"
- molecule: "C[C@]12CC[C@@H]3c4ccc(O)cc4CC[C@H]3[C@@H]1CCC2=O"
  assigned category: "inactive"
- molecule: "NC(=O)c1nc(-c2cccc(-c3cc(F)ccc3OCC(F)(F)C(F)(F)F)c2)n[nH]1"
  assigned category: "inactive"
- molecule: "CC(C)(c1cc(Br)c(O)c(Br)c1)c1cc(Br)c(O)c(Br)c1"
  assigned category: "inactive"
- molecule: "Cc1ccc(C(C)C)cc1"
  assigned category: "inactive"
- molecule: "Clc1ccccc1C(c1ccccc1)(c1ccccc1)n1ccnc1"
  assigned category: "active"
- molecule: "CC(C)(O)c1ccc(CNC(=O)c2cccnc2Oc2ccc3nonc3c2)cc1"
  assigned category: "inactive"
- molecule: "O=C1c2ccccc2C(=O)N1CCc1noc(-c2ccc(CN3CCCCCC3)s2)n1"
  assigned category: "inactive"
- molecule: "Cc1ccc2oc(CN(Cc3ccccc3)C(=O)Nc3c(F)cc(F)cc3F)c(-c3ccc(Cl)cc3)c2c1"
  assigned category: "inactive"

Continue with the molecule presented below.
# outcome recorded in this test, key = `CC(=O)N1CCN(c2ccc(OC[C@H]3CO[C@](Cn4ccnc4)(c4ccc(Cl)cc4Cl)O3)cc2)CC1`
active
